Sourced from ChEMBL document CHEMBL6114992

System: THP-1
Assay: Antiproliferative activity against human THP-1 cells assessed as inhibition of cell growth incubated for 72 hrs by MTT assay
Format: functional, cell-based
Settings: THP-1, 72 h
So basically: is IC50 under 10 µM? Then T. Not under? Then F.

Smiles data: CCc1nccnc1C(=O)/C=C/c1ccc(C)cc1
Answer label: F
//
Smiles data: Cc1nccnc1C(=O)/C=C/c1ccc[nH]1
Answer label: T
//
Smiles data: Cc1nccnc1C(=O)/C=C/c1ccc(F)cc1F
Answer label: F
//
Smiles data: CCc1nccnc1C(=O)/C=C/c1ccccc1Br
Answer label: T
//
Smiles data: O=C(/C=C/c1ccccc1)c1cnccn1
Answer label: F
//
Smiles data: O=C(/C=C/c1ccc(F)cc1)c1cnccn1
Answer label: F
//
Smiles data: O=C(/C=C/c1cc2ccccc2o1)c1cnccn1
Answer label: F

----------
System: THP-1
Assay: Antiproliferative activity against human THP-1 cells assessed as inhibition of cell growth incubated for 72 hrs by MTT assay
Format: functional, cell-based
Settings: THP-1, 72 h
pIC50: −log10 of the molar value.
Observable: pIC50

Smiles data: N#Cc1ccc(/C=C/C(=O)c2cnccn2)cc1
Observable: pIC50
Observed result: 4.79

Smiles data: CCc1nccnc1C(=O)/C=C/c1ccccc1[N+](=O)[O-]
Observable: pIC50
Observed result: 5.82

Smiles data: CCc1nccnc1C(=O)/C=C/c1ccccc1N1CCOCC1
Observable: pIC50
Observed result: 5.46

Smiles data: O=C(/C=C/c1ccccc1F)c1cnccn1
Observable: pIC50
Observed result: 4.93

Smiles data: N#Cc1cccc(/C=C/C(=O)c2cnccn2)c1
Observable: pIC50
Observed result: 5.01

Smiles data: CCc1nccnc1C(=O)/C=C/c1ccc(F)cc1
Observable: pIC50
Observed result: 5.14

Smiles data: CCc1nccnc1C(=O)/C=C/c1ccccc1
Observable: pIC50
Observed result: 4.62

Smiles data: Cc1nccnc1C(=O)/C=C/c1csc2ccccc12
Observable: pIC50
Observed result: 5.68

Smiles data: Cc1nccnc1C(=O)/C=C/c1ccc(Cl)cc1Cl
Observable: pIC50
Observed result: 5.04

Smiles data: CCc1nccnc1C(=O)/C=C/c1ccc(F)cc1F
Observable: pIC50
Observed result: 5.24

Smiles data: CCc1nccnc1C(=O)/C=C/c1ccc2c(c1)OC(F)(F)O2
Observable: pIC50
Observed result: 5.27

Smiles data: CCc1nccnc1C(=O)/C=C/c1cccc([N+](=O)[O-])c1
Observable: pIC50
Observed result: 5.81

----------
Test system: KG-1
Experiment: Antiproliferative activity against human KG-1 cells assessed as inhibition of cell growth incubated for 72 hrs by MTT assay
Type: functional, cell-based
Conditions: KG-1, 72 h
pIC50: −log10 of the molar value.
Observable: pIC50

Smiles data: CSc1ccc(/C=C/C(=O)c2nccnc2C)cc1
Observed result: 5.16
--
Smiles data: O=C(/C=C/c1ccccc1F)c1cnccn1
Observed result: 5.00
--
Smiles data: Cc1nccnc1C(=O)/C=C/c1ccc(-c2ccccc2)cc1
Observed result: 5.49
--
Smiles data: CC(C)(C)c1ccc(/C=C/C(=O)c2cnccn2)cc1
Observed result: 4.87
--
Smiles data: Cc1nccnc1C(=O)/C=C/c1cccc(Cl)c1
Observed result: 5.67
--
Smiles data: Cc1nccnc1C(=O)/C=C/c1ccc(C(C)(C)C)cc1
Observed result: 4.36
